- Tested on: HCT116
- PROTOCOL DESCRIPTION: 14C-Thymidine incorporation assay, HCT116
- Type: cell-based
- CONDITION SUMMARY: Homo sapiens, HCT-116; HCT116 (colon); average; read-out: Average IC50 (nM) against HCT116 (colon)
QUANTITY KIND: IC50 (nM)
Enter your answer as a number in nM; do not include the unit.

Q: Using known records, supply IC50 for CCC(C)C1C(=O)NC(Cc2ccc(O)c(Br)c2)C(=O)NC(C(C)(C)O)C(=O)OC(c2ccccc2)C(C)/C=C/C=C(\C)C(OC)CC2OC2(C)C(=O)N1C (centres unmarked)
A: 0.268

Q: Using known records, supply IC50 for CCC(C)C1C(=O)NC(Cc2cc(Cl)c(O)c(Br)c2)C(=O)NC(C(C)(C)O)C(=O)OC(c2ccccc2)C(C)/C=C/C=C(\C)C(OC)CC2OC2(C)C(=O)N1C (centres unmarked)
A: 0.393

Q: Using known records, supply IC50 for COC1CC2OC2(C)C(=O)N(C)C(C(C)C)C(=O)NC(Cc2cc(Cl)c(O)c(Cl)c2)C(=O)NC(C(C)(C)O)C(=O)OC(c2ccccc2)C(C)/C=C/C=C/1C (centres unmarked)
A: 0.673

Q: Using known records, supply IC50 for CCC(C)C1C(=O)NC(Cc2ccc(O)c(Br)c2)C(=O)NC(C(C)(C)O)C(=O)OC(c2ccccc2)C(C)/C=C/C=C(\C)C(OC)C/C=C(/C)C(=O)N1C (centres unmarked)
A: 2.1

Q: Using known records, supply IC50 for CCC(C)C1C(=O)NC(Cc2ccc(O)c(Cl)c2)C(=O)NC(C(C)(C)O)C(=O)OC(c2ccccc2)C(C)/C=C/C=C(\C)C(OC)CC2OC2(C)C(=O)N1C (centres unmarked)
A: 0.326
